Test system: SK-MEL-28 melanoma
Test: NCI tumour cell line growth inhibition, 48 h
observable: GI50

INSERT INTO results (molecule, assay_target, obs_value) VALUES
  ('COc1ccc2c(c1)c(-c1nc(-c3cn(C)c4ccncc34)cs1)cn2C', 'SK-MEL-28 melanoma', '1710 nM'),
  ('NC(=S)N/N=C/c1ccc(OC(=O)COc2cc(Cl)c(Cl)cc2Cl)cn1', 'SK-MEL-28 melanoma', '13100 nM'),
  ('CC1=C(C#N)C23C(=O)N(c4ccccc4)C(=O)C2=C(O)C=CC3(O)N1Cc1ccc(Cl)cc1Cl (centres undefined)', 'SK-MEL-28 melanoma', '1530 nM'),
  ('Cc1cc2c(F)c(Oc3ncnc(Nc4ccc(N5C[C@@H](C)N[C@@H](C)C5)cc4)c3C#N)cc(F)c2[nH]1', 'SK-MEL-28 melanoma', '1960 nM'),
  ('CN1C(=O)CCC(N2C(=O)c3cccc(NCCOCCOCCNC(=O)c4cc5c(o4)C(=O)c4ccccc4C5=O)c3C2=O)C1=O (centres undefined)', 'SK-MEL-28 melanoma', '2040 nM'),
  ('CC1=C([Te]c2ccccc2)C(=O)c2ccccc2C1=O', 'SK-MEL-28 melanoma', '1250 nM'),
  ('CN(C)c1ccc(/C=N/NC(N)=S)nc1', 'SK-MEL-28 melanoma', '17900 nM'),
  ('COc1cc(-c2nn(-c3cccc(NC(=O)Nc4ccc(Cl)c(C(F)(F)F)c4)c3)cc2-c2ccncc2)ccc1Cl', 'SK-MEL-28 melanoma', '1200 nM'),
  ('COc1ccc2c(c1)CCC1C2CC[C@@]2(C)C1CC[C@@H]2NC(=O)Cc1ccc(O)c(O)c1 (some centres undefined)', 'SK-MEL-28 melanoma', '9900 nM');

---

Test system: EKVX NSCLC
Assay: NCI tumour cell line growth inhibition, 48 h
observable: TGI

INSERT INTO assay_data (compound, obs_value) VALUES
  ('Cn1c(-c2ccc(C=O)o2)ccc1-c1ccc(C=O)o1', '> 100 µM'),
  ('CSc1cc([C@@H]2C[C@H]2c2ccc(Cl)cc2)on1', '55.8 µM'),
  ('COC(=O)/C=C1/SC(=Nc2cccc(Cl)c2)N(CCc2c[nH]c3ccc(O)cc23)C1=O', '5.51 µM'),
  ('COC(=O)c1ccc(NCc2cc(OC)ccc2OC)cc1', '> 100 µM'),
  ('COC(=O)C1=C(C)NC(=O)N2[C@@H](CCOCc3ccccc3)CC[C@@H]12', '> 50 µM'),
  ('CCCc1nn(C)c2c(=O)[nH]c(-c3cc(S(=O)(=O)N4CCN(C)CC4)ccc3OCC)nc12', '> 100 µM'),
  ('COc1ccc(C2SCC(=O)N2c2ccc(-n3c(-c4ccccc4)nc4ccccc4c3=O)cc2)cc1 (stereo not given)', '> 100 µM'),
  ('COc1ccc(C(=O)/C=C/c2ccc(OCCCCCCCCCCOc3ccc(/C=C/C(=O)c4ccc(OC)cc4)cc3)cc2)cc1', '> 100 µM'),
  ('Cn1ncc(Cl)c1-c1cc(C(=O)N[C@H](CN)Cc2cccc(F)c2)sc1Cl', '> 10 µM'),
  ('C=C1C(C(=O)OC)[C@H]1C(=O)OC (stereo not given in full)', '> 100 µM'),
  ('COc1nc(N)nc2c1ncn2C1CC(O)C(CO)O1 (stereo not given)', '> 100 µM'),
  ('Cc1ncn(-c2ccccc2O)c1C', '> 100 µM'),
  ('O=C(OC1=CCN(Br)C1=O)C1=C(O)C(=O)N(Br)C1', '77.8 µM'),
  ('CCOC(=O)c1ccc(-n2cnc(-c3ccc([N+](=O)[O-])cc3)c2)cc1', '> 100 µM'),
  ('CC1=C(C#N)C23C(=O)N(c4ccccc4)C(=O)C2=C(O)C=CC3(O)N1Cc1ccc(Cl)cc1Cl (stereo not given)', '21.3 µM'),
  ('COc1c2c(c3c(c1OC)c(=O)c1ccccc1n3C)OCO2', '> 100 µM'),
  ('CCCCCCN(CCCCCC)CCC(=O)c1ccc2cc(Br)c3ccccc3c2c1', '> 100 µM'),
  ('COC[C@H](NC(=O)c1cnc(C)s1)C(=O)N[C@@H](COC)C(=O)N[C@@H](Cc1ccccc1)C(=O)[C@@]1(C)CO1', '> 100 µM'),
  ('O=c1onc2n1-c1ccc(Cl)cc1C(=S)N1CSCC21 (stereo not given)', '> 100 µM'),
  ('CCOC(=O)C1(C(=O)OCC)C(C(C)(C)C)=C(C)c2ccccc21', '56.2 µM'),
  ('S=P1(Sc2ccccc2)Oc2ccc3ccccc3c2-c2c(ccc3ccccc23)O1', '> 100 µM'),
  ('NCCCCC(NC(=O)C(N)CCCN=C(N)N)C(=O)NC(CCCCN)C(=O)NC(CCCN=C(N)N)C(=O)NC(CCCN=C(N)N)C(=O)NC(CCC(N)=O)C(=O)NC(CCCN=C(N)N)C(=O)NC(CCCN=C(N)N)C(=O)NC(CCCN=C(N)N)C(=O)NCC(=O)NCC(=O)O (stereo not given)', '> 50 µM'),
  ('[N-]=[N+]=NCN1C(=O)C2C3C=CC(C2C1=O)C1C2C(=O)N(CN=[N+]=[N-])C(=O)C2C31 (stereo not given)', '> 100 µM'),
  ('NCC(=O)Nc1ccccc1', '> 100 µM'),
  ('COc1cc2nc(Nc3cccc(Cl)c3)nc(N)c2cc1OC', '27 µM'),
  ('COC(=O)C(Cc1c[nH]c2ccccc12)NC(=O)C(Cc1cnc[nH]1)NC(=O)C1CCC(=O)N1C(=O)OCc1ccccc1 (stereo not given)', '> 100 µM'),
  ('CC(=O)OCc1c(O)c2c([nH]c1=O)CCc1ccccc1-2', '> 350 µM'),
  ('COc1ccc(/C=N\N(C)Cc2cccc3ccsc23)cc1', '> 100 µM'),
  ('CN(C)CCNc1ccc2ncn3c4ccc(O)cc4c(=O)c1c23', '17.5 µM'),
  ('O=C(CC1(O)C(=O)Nc2c(Cl)cc(Cl)cc21)c1ccccc1 (stereo not given)', '> 100 µM'),
  ('CC(=O)Nc1nc(C)c(S(=O)(=O)NC(=O)NC2NC(=O)NC2=O)s1 (stereo not given)', '> 100 µM'),
  ('COc1ccc(CCN2CCN(CCCc3ccccc3)CC2)cc1', '> 100 µM'),
  ('O=C(O)c1nc2cc(Cl)ccc2[nH]c1=O', '> 100 µM'),
  ('COc1cc2nc(N3CCCN(C)CC3)nc(NC3CCN(Cc4ccccc4)CC3)c2cc1OC', '13.9 µM'),
  ('O=[N+]([O-])c1ccc(-c2csc(N=Nc3c(O)[nH]c4ccccc34)n2)cc1', '> 100 µM'),
  ('Cc1cc2c(F)c(Oc3ncnc(Nc4ccc(N5C[C@@H](C)N[C@@H](C)C5)cc4)c3C#N)cc(F)c2[nH]1', '14.7 µM'),
  ('O=c1[nH]c(Nc2ccc(Br)c(C(F)(F)F)c2)nc2nc[nH]c12', '> 100 µM'),
  ('CCOC(=O)c1[nH]c2cc(Cl)ccc2c1[C@@H](C(=O)NC(C)(C)C)N(CC)C(=O)CCCCC#Cc1cccc2c1CN(C1CCC(=O)NC1=O)C2=O (stereo not given in full)', '45.5 µM'),
  ('COC(=O)CCc1ccc(CCC(=O)OC)cc1', '> 100 µM'),
  ('O=C1c2ccccc2C(=O)N1CCc1ncc(-c2ccccc2)[nH]1', '> 100 µM');

---

Tested on: K-562 leukemia
Assay: NCI tumour cell line growth inhibition, 48 h; in the data active means GI50 below about 0.43 µM; inactive means the rest
Possible outcomes: 1 (yes) for active, 0 (no) for inactive

INSERT INTO measurements (molecule, classification) VALUES
  ('NCCCCC(NC(=O)C(N)CCCN=C(N)N)C(=O)NC(CCCCN)C(=O)NC(CCCN=C(N)N)C(=O)NC(CCCN=C(N)N)C(=O)NC(CCC(N)=O)C(=O)NC(CCCN=C(N)N)C(=O)NC(CCCN=C(N)N)C(=O)NC(CCCN=C(N)N)C(=O)NCC(=O)NCC(=O)O (centres undefined)', '0 (no)'),
  ('Fc1cccc(COc2ccc(Nc3ncnc4onc(-c5ccccc5)c34)cc2)c1', '1 (yes)'),
  ('O=C(O)Cc1cccc2c(=O)cc(-c3ccccc3)oc12', '0 (no)'),
  ('CN(C)c1ccc(/C=N/NC(N)=S)nc1', '0 (no)');

---

Test system: 786-0 renal
Experiment: NCI tumour cell line growth inhibition, 48 h
Reported log10(TGI) values follow for various molecules
observable: log10(TGI) (log10 of the value in µM)

INSERT INTO assay_data (molecule, obs_value) VALUES
  ('CCOC(=O)c1c(N)sc2c1CC(C)CC2 (centres undefined)', 1.74),
  ('O=C1CCCCCCC2=C1C(Sc1ccccc1)CC2 (centres undefined)', 1.52),
  ('CC1=C(C#N)C23C(=O)N(c4ccccc4)C(=O)C2=C(O)C=CC3(O)N1Cc1ccc(Cl)cc1Cl (centres undefined)', 1.16),
  ('COc1ccc(N2C(=O)C3CC(c4ccc(Br)cc4)c4c([nH]c5ccccc45)C3C2=O)cc1 (centres undefined)', 0.65),
  ('COc1ccc2c(c1)c1c3c(ccc4ncn2c43)N(CCO)CCN=1', 0.03);

This collection of values is drawn from PubChem BioAssay (NCI).
